- target-or-system: HCV polymerase (NS5B) type 1a (Hepatitis C virus genotype 1a)
- Construct: made in house; host or cells: Escherichia coli (by the 'similar method' of the 1b enzyme)
- experiment-description: Assay of enzyme (HCV polymerase) inhibitory activity, type 1a enzyme
- Assay type: biochemical, HCV type 1a (cloned from the blood of patients)
- measurement-conditions: HCV polymerase inhibitory activity (IC50), 1a, type 1a enzyme 1.5 μg/ml, 25° C., 60 min
pIC50: −log10 of the molar value.
Here the recorded pIC50 is given for each entry.
readout: pIC50

INSERT INTO results (molecule, result) VALUES
  ('CC(C)c1ccc(CNC(=O)[C@H]2CN(c3cnc(C(=O)O)cn3)CCN2S(=O)(=O)c2ccc(OC(F)(F)F)cc2)cn1 [Example 408]', '> 7.00'),
  ('CN(C)c1ccc(CNC(=O)C2CN(C(=O)CC3CCCCC3)CCN2S(=O)(=O)c2ccc(I)cc2)cc1 (stereo not drawn) [Example 122]', '< 6.00'),
  ('CCOc1ccc(CNC(=O)[C@H]2CN(c3cnc4cncnc4n3)CCN2S(=O)(=O)c2ccc(OC(F)(F)F)cc2)cc1 [Example 651]', '> 7.00'),
  ('CCC(F)(F)c1ccc(CNC(=O)[C@H]2CN(C(=O)Nc3ccnc(C(=O)N(C)C)c3)CCN2S(=O)(=O)c2ccc(OC(F)(F)F)cc2)cc1 [Example 504]', '> 7.00'),
  ('Cc1nc(N2CCN(S(=O)(=O)c3ccc(OC(F)(F)F)cc3)[C@@H](C(=O)NCc3ccc(C(C)C)cc3)C2)sc1C(=O)N(C)C [Example 355]', '> 7.00'),
  ('COCC(=O)N1CCN(S(=O)(=O)c2ccc(C(C)C)cc2)C(C(=O)NCc2ccc(C(F)(F)F)cc2)C1 (stereo not drawn) [Example 57]', '< 6.00');
